- TARGET ENTITY: Protein cereblon/Son of sevenless homolog 1 (Homo sapiens, UniProt Q07889+Q96SW2)
- Sequence (Q07889 whole entry): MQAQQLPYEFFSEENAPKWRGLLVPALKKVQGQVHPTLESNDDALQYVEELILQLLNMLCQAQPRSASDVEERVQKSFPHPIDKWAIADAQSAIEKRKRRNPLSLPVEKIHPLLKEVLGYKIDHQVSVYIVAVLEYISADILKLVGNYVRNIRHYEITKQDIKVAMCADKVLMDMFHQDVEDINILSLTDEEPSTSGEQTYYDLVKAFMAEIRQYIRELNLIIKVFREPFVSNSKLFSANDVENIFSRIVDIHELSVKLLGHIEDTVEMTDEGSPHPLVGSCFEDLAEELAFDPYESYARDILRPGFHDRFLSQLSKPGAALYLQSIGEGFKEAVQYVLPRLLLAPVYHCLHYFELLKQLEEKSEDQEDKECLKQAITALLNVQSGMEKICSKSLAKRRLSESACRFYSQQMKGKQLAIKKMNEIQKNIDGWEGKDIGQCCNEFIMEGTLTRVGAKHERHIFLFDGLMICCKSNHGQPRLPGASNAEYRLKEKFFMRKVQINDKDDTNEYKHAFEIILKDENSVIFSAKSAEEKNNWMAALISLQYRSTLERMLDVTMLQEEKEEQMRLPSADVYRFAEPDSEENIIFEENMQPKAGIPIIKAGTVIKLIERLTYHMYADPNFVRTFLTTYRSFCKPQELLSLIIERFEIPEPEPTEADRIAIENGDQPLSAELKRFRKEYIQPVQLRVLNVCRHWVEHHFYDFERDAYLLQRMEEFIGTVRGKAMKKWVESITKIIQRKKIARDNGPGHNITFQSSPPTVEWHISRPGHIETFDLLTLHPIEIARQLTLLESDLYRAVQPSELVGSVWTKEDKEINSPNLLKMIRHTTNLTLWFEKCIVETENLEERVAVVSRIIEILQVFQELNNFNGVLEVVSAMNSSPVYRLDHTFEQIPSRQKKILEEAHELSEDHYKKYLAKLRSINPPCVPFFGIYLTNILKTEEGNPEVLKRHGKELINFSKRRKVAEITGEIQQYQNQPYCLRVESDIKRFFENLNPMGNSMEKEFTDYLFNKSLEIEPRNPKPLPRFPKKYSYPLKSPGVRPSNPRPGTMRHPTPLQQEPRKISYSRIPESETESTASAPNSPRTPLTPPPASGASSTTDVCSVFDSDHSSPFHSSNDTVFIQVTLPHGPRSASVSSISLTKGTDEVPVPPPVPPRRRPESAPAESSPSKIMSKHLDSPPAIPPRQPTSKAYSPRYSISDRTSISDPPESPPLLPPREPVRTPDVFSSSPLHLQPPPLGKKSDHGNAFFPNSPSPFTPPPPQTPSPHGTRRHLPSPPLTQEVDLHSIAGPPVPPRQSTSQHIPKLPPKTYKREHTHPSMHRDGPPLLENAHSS
- Sequence (Q96SW2 whole entry): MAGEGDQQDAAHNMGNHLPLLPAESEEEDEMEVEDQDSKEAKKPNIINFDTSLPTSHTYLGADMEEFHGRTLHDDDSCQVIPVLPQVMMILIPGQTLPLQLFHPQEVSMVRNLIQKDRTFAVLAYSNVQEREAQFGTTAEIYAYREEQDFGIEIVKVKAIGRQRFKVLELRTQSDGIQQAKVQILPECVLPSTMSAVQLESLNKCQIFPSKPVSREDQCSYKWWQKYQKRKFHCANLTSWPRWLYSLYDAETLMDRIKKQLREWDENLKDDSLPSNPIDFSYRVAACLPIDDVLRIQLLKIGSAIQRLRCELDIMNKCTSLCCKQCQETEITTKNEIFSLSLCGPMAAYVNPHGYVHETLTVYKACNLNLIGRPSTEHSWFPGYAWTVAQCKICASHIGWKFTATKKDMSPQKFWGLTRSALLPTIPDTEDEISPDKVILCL
- PROTOCOL SUMMARY: PROTAC activity at CRBN/SOS1 in human NCI-H358 cells assessed as induction of SOS1 degradation incubated for 6 hrs by Western blotting analysis
- Format: cell-based
- SETTINGS: read-out: DC50
MEASURED PROPERTY: DC50 (nM)

Some molecules with recorded DC50:
>  <MOLECULE>
COc1cc2nc(C)nc(N[C@H](C)c3cc(N)cc(C(F)F)c3)c2cc1OCC1(CN(C)C(=O)CCCCCCNc2cccc3c2C(=O)N(C2CCC(=O)NC2=O)C3=O)CC1 (stereo partly drawn)

>  <TARGET ENTITY>
Protein cereblon/Son of sevenless homolog 1 (Homo sapiens, UniProt Q07889+Q96SW2)

>  <DC50 / nM>
45

$$$$
>  <MOLECULE>
COc1cc2nc(C)nc(N[C@H](C)c3cc(N)cc(C(F)(F)F)c3)c2cc1OCC1(CN(C)C(=O)C2CCN(CCNc3cccc4c3C(=O)N(C3CCC(=O)NC3=O)C4=O)CC2)CC1 (stereo partly drawn)

>  <TARGET ENTITY>
Protein cereblon/Son of sevenless homolog 1 (Homo sapiens, UniProt Q07889+Q96SW2)

>  <DC50 / nM>
44

$$$$
>  <MOLECULE>
COc1cc2nc(C)nc(N[C@H](C)c3cccc(C(F)F)c3F)c2cc1OCC1(CN(C)C(=O)CCCCCCNc2cccc3c2C(=O)N(C2CCC(=O)NC2=O)C3=O)CC1 (stereo partly drawn)

>  <TARGET ENTITY>
Protein cereblon/Son of sevenless homolog 1 (Homo sapiens, UniProt Q07889+Q96SW2)

>  <DC50 / nM>
540

$$$$

(1) COc1cc2nc(C)nc(N[C@H](C)c3cc(N)cc(C(F)(F)F)c3)c2cc1OCC1(CN(C)C(=O)CCCOC2CCC(Nc3cccc4c3C(=O)N(C3CCC(=O)NC3=O)C4=O)CC2)CC1 (stereo partly drawn)
(2) COc1cc2nc(C)nc(N[C@H](C)c3cc(N)cc(C(F)(F)F)c3)c2cc1OCC1(CN(C)C(=O)CCCCCCNc2cccc3c2C(=O)N(C2CCC(=O)NC2=O)C3=O)CC1 (stereo partly drawn)
q: Lab note: check whether 1 or 2 shows the higher recorded DC50. To answer, give the label that identifies your chosen option.
a: 1
(1: 35 nM, 2: 13 nM)

(1) COc1cc2nc(C)nc(N[C@H](C)c3cc(N)cc(C(F)(F)F)c3)c2cc1OCC1(CN(C)C(=O)CCCCCCNc2cccc3c2CN(C2CCC(=O)NC2=O)C3=O)CC1 (stereo partly drawn)
(2) COc1cc2nc(C)nc(N[C@H](C)c3cc(N)cc(C(F)(F)F)c3)c2cc1OCC1(CN(C)C(=O)C2CCN(C3CCC(Nc4cccc5c4C(=O)N(C4CCC(=O)NC4=O)C5=O)CC3)CC2)CC1 (stereo partly drawn)
q: Two entries are listed, 1 and 2 . Which one carries the higher DC50? When you have decided, please share the label of that item.
a: 1
(1: 151 nM, 2: 55 nM)

###

- Tested on: NCI-H358
- PROTOCOL SUMMARY: Antiproliferative activity against human NCI-H358 cells assessed as inhibition of cell proliferation incubated for 7 days by celltiter-glo 3D assay
- Format: functional, cell-based
- SETTINGS: NCI-H358, 168 h
pIC50: −log10 of the molar value.
MEASURED PROPERTY: pIC50

>  <COMPOUND>
COc1cc2nc(C)nc(N[C@H](C)c3cc(N)cc(C(F)(F)F)c3)c2cc1OCC1(CN(C)C(=O)CN2CCC(OC3CCN(c4ccc5c(c4)C(=O)N(C4CCC(=O)NC4=O)C5=O)CC3)CC2)CC1 (stereo partly specified)

>  <MEASURED PROPERTY>
pIC50

>  <ENDPOINT VALUE>
6.09

$$$$
>  <COMPOUND>
COc1cc2nc(C)nc(N[C@H](C)c3cc(N)cc(C(F)F)c3)c2cc1OCC1(CN(C)C(=O)CCCCCCNc2cccc3c2C(=O)N(C2CCC(=O)NC2=O)C3=O)CC1 (stereo partly specified)

>  <MEASURED PROPERTY>
pIC50

>  <ENDPOINT VALUE>
7.80

$$$$
>  <COMPOUND>
COc1cc2nc(C)nc(N[C@H](C)c3cc(N)cc(C(F)(F)F)c3)c2cc1OCC1(CN(C)C(=O)CCCCNc2cccc3c2C(=O)N(C2CCC(=O)NC2=O)C3=O)CC1 (stereo partly specified)

>  <MEASURED PROPERTY>
pIC50

>  <ENDPOINT VALUE>
7.07

$$$$
>  <COMPOUND>
COc1cc2nc(C)nc(N[C@H](C)c3cc(N)cc(C(F)(F)F)c3)c2cc1OCC1(CN(C)C(=O)CCOCCNc2cccc3c2C(=O)N(C2CCC(=O)NC2=O)C3=O)CC1 (stereo partly specified)

>  <MEASURED PROPERTY>
pIC50

>  <ENDPOINT VALUE>
5.78

$$$$
>  <COMPOUND>
COc1cc2nc(C)nc(N[C@H](C)c3cc(N)cc(C(F)(F)F)c3)c2cc1OCC1(CN(C)C(=O)CCCOCCNc2cccc3c2C(=O)N(C2CCC(=O)NC2=O)C3=O)CC1 (stereo partly specified)

>  <MEASURED PROPERTY>
pIC50

>  <ENDPOINT VALUE>
7.15

$$$$
>  <COMPOUND>
COc1cc2nc(C)nc(N[C@H](C)c3cc(N)cc(C(F)(F)F)c3)c2cc1OCC1(CN(C)C(=O)CN2CCC(CN3CCN(c4ccc5c(c4)C(=O)N(C4CCC(=O)NC4=O)C5=O)CC3)CC2)CC1 (stereo partly specified)

>  <MEASURED PROPERTY>
pIC50

>  <ENDPOINT VALUE>
5.96

$$$$
>  <COMPOUND>
COc1cc2nc(C)nc(N[C@H](C)c3cc(N)cc(C(F)(F)F)c3)c2cc1OCC1(CN(C)C(=O)CCOCCOCCNc2cccc3c2C(=O)N(C2CCC(=O)NC2=O)C3=O)CC1 (stereo partly specified)

>  <MEASURED PROPERTY>
pIC50

>  <ENDPOINT VALUE>
6.38

$$$$
>  <COMPOUND>
COc1cc2nc(C)nc(N[C@H](C)c3cc(N)cc(C(F)(F)F)c3)c2cc1OCC1(CN(C)C(=O)C2CCN(C3CCN(c4ccc5c(c4)C(=O)N(C4CCC(=O)NC4=O)C5=O)CC3)CC2)CC1 (stereo partly specified)

>  <MEASURED PROPERTY>
pIC50

>  <ENDPOINT VALUE>
6.16

$$$$

(a) COc1cc2nc(C)nc(N[C@H](C)c3cc(N)cc(C(F)(F)F)c3)c2cc1OCC1(CN(C)C(=O)CCCOC2CCC(Nc3cccc4c3C(=O)N(C3CCC(=O)NC3=O)C4=O)CC2)CC1 (stereo partly specified)
(b) COc1cc2nc(C)nc(N[C@H](C)c3cc(N)cc(C(F)(F)F)c3)c2cc1OCC1(CN(C)C(=O)CCCCCCNc2ccc3c(c2)C(=O)N(C2CCC(=O)NC2=O)C3=O)CC1 (stereo partly specified)
q: // compare: a vs b , metric pIC50, want the smaller Indicate which entry you chose by stating its label.
a: b

###

- Test system: NCI-H441
- PROTOCOL SUMMARY: Antiproliferative activity against human NCI-H441 cells harboring G12V mutant assessed as inhibition of cell proliferation incubated for 7 days by celltiter-glo 3D assay
- Format: functional, cell-based
- SETTINGS: NCI-H441, 168 h
MEASURED PROPERTY: IC50 (nM)

(P) COc1cc2nc(C)nc(N[C@H](C)c3cc(N)cc(C(F)(F)F)c3)c2cc1O[C@H]1CCOC1
(Q) COc1cc2nc(C)nc(N[C@H](C)c3cc(N)cc(C(F)(F)F)c3)c2cc1OCC1(CN(C)C(=O)CCCCCCNc2cccc3c2C(=O)N(C2CCC(=O)NC2=O)C3=O)CC1 (some centres not stated)
q: Given the listed items, does P or Q have the lesser reported IC50? Respond with the label that goes with your answer.
a: Q
(Q: 43 nM, P: 68 nM)

###

- Test system: NCI-H358
- PROTOCOL SUMMARY: Antiproliferative activity against human NCI-H358 cells assessed as inhibition of cell proliferation incubated for 7 days by celltiter-glo 3D assay
- Type: functional, cell-based
- SETTINGS: NCI-H358, 168 h
MEASURED PROPERTY: IC50 (nM)

>  <COMPOUND>
COc1cc2nc(C)nc(N[C@H](C)c3cc(N)cc(C(F)(F)F)c3)c2cc1OCC1(CN(C)C(=O)C2CCC(N3CCN(c4ccc5c(c4)C(=O)N(C4CCC(=O)NC4=O)C5=O)CC3)CC2)CC1 (stereo partly drawn)

>  <OUTPUT UNIT>
nM

>  <ENDPOINT VALUE>
1370

$$$$

(A) COc1cc2nc(C)nc(N[C@H](C)c3cc(N)cc(C(F)(F)F)c3)c2cc1OCC1(CN(C)C(=O)CCOCCC#Cc2cccc3c2C(=O)N(C2CCC(=O)NC2=O)C3=O)CC1 (stereo partly drawn)
(B) COc1cc2nc(C)nc(N[C@H](C)c3cc(N)cc(C(F)(F)F)c3)c2cc1OCC1(CN(C)C(=O)C2CCN(CCNc3cccc4c3C(=O)N(C3CCC(=O)NC3=O)C4=O)CC2)CC1 (stereo partly drawn)
q: # returns the entry with the larger IC50; inputs A and B State your choice using its label.
a: A
(A: 1140 nM, B: 18 nM)
